Origin of the recorded values: the MegaScale stability set (Tsuboyama et al. 2023)

B1: HEEH_KT_rd6_3546 (parent)
chain: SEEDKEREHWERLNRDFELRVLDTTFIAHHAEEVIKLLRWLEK

variants of: B1; test: folding stability dG (cDNA display proteolysis); higher = more stable; details: PBS, room temperature
Classification field: satisfied = folding stability dG at or over 1 kcal/mol; not satisfied = folding stability dG under 1 kcal/mol.

Input: Is it the case that SEEDKEREHWERLNRDFELRYLDTTFIAHHAEEVIKLLRWLEK has folding stability dG reaching or exceeding 1 kcal/mol?
Output: satisfied
